test system: UO-31 renal; experiment: NCI-60 one-dose screen, 48 h; conditions: 10 µM unless noted
The panel holds about 83,000 compounds, 20% with a hit somewhere; the sample as a whole holds those more often. Activity calls are given as the source filed them. Rule for the calls: active = growth percent below 10; inactive = the rest.
// classify into active, inactive

The following compounds have reported results that may help.
C/C(=N\NC(=O)c1ccccc1O)c1cccc(/C(C)=N/NC(=O)c2ccccc2O)n1	inactive
N=C(N)c1ccc(-c2ccc(-c3cc(Cl)cc(Cl)c3)o2)o1	active
COc1ccc(C(c2cc(OC)c(OC)c(OC)c2)N2CCN(c3ccccc3)CC2)cc1 (stereo not given)	inactive
CCCCCCCCCCCCCCCCCCOc1ccccc1CC(=O)OCC[N+]1(C)CCCC1	inactive

Task item: For this compound, state the assay outcome: CCOC(=O)c1[nH]c(=O)c2c(C)nc(-c3ccccc3)cc2c1O
Reply: inactive

Task item: I'd appreciate the recorded outcome for N#Cc1cccc(-c2c(-c3ccc4ccccc4c3)oc3ccccc3c2=O)c1 from this test.
Reply: inactive

Task item: Field: outcome | Entry: Cc1cc2c(O)c(-c3cc(Cl)ccc3Cl)c3sc(=O)oc3c2cc1C
Reply: inactive

Task item: How was CCOc1nc(-c2ccccc2)cc2c(O)c(C(=O)NN)[nH]c(=O)c12 classified in this test?
Reply: inactive

Task item: I'd appreciate the recorded outcome for Oc1ccc(CN2CCC(N3CCCCC3)CC2)c2cccnc12 from this test.
Reply: active

Task item: Would you mind telling me which call this test gave CNC(=O)c1cc(Oc2ccc3nc(NC(C)=O)sc3c2)ccn1 ?
Reply: inactive

* * *

Below is a list of entries, each paired with its recorded growth value.
tested on: MALME-3M melanoma; test: NCI-60 one-dose screen, 48 h (100 = growth as untreated, 0 = no growth, -100 = all killed); details: 10 µM unless noted
This is part of a sample that, as a whole, favours compounds with a hit. Of some 83,000 tested, about 20% had one in any assay. Calls of active or inactive are those of the source. How the source made its calls: active means growth percent below 10; inactive means the rest.

Reference set, count: 5
Nc1nc2c([nH]1)c1[nH]c3ccccc3c1c1[nH]c3ccccc3c21	-72.4% (active)
CCCNC(=O)Oc1ccc(/C(=C(/C)Cc2ccc(OC)cc2)c2ccc(OCCCN(C)C)cc2)cc1	82.9% (inactive)
COc1ccc2c(O)c(/C=C3\N=Nc4ccccc43)oc2c1C[C@@H]1CCNC[C@H]1F	52.9% (inactive)
O=C(CSc1nc(-c2ccccc2)[nH]c1S(=O)(=O)c1ccccc1)NC1CC1	103% (inactive)
O=C(Nn1c2c(sc1=Nc1ccccc1)C(=O)c1ccccc1C2=O)c1cc2ccc1CCc1ccc(cc1)CC2	-69.3% (active)

Task item: Item under review: O=C(CCC(=O)N/N=C/c1ccccc1O)N/N=C/c1ccccc1O . Reported growth?
Reply: 62.5% (inactive)

Task item: Given O=C(O)CNC1=C(Cl)C(=O)c2ccccc2C1=O , state its recorded growth.
Reply: 118% (inactive)

Task item: Bench note: what growth did Brc1ccc2[nH]cc(-c3nonc3-c3c[nH]c4ccccc34)c2c1 show?
Reply: 56.8% (inactive)

Task item: Quick one: growth for O=C(CN1C(=O)CCC1=O)Nc1ncc(Cc2ccc(F)cc2)s1 ?
Reply: 99.8% (inactive)

Task item: Param item = CCCC(=O)NC(c1ccc2c(c1)OCO2)c1ccc2cccnc2c1O (stereo unspecified) ; retrieve measured growth.
Reply: 13.4% (inactive)

Task item: Requested field: growth. Item: Fc1ccc(-c2nn(-c3ccccc3)cc2-c2nc3ccccc3o2)cc1
Reply: 63.6% (inactive)
